- System: Gamma-aminobutyric acid receptor subunit alpha-3 (Homo sapiens) (UniProt P34903)
- Sequence (P34903 whole entry): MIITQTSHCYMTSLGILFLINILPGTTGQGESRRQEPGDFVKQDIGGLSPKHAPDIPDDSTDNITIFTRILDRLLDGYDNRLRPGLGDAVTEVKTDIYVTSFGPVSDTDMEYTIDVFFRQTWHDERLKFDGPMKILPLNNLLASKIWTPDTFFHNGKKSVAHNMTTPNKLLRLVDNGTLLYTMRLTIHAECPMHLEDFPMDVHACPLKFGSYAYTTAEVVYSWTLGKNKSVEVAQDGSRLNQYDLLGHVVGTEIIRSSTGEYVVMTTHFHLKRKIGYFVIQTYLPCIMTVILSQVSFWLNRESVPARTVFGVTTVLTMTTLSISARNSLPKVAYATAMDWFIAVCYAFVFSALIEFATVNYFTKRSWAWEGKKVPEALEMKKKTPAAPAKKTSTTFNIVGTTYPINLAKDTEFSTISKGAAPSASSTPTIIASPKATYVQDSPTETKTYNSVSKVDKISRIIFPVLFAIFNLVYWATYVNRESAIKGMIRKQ
- Protocol: Maximum percent potentiation against gamma-aminobutyric acid (GABA) A receptor, alpha 3
- Condition label: Xenopus laevis
Readout kind: Activity (%)
Numeric answer only, unit % assumed.

> print(dat)
                            chemical.string                                    system  number
1      CCN1CCc2nc(O)n3cc(-c4ccccc4F)nc3c2C1  Gamma-aminobutyric acid receptor subunit alpha-3 (Homo sapiens) (UniProt P34903)      14
2  Oc1nc2c(c3nc(-c4ccccc4F)cn13)CN(CC1CCCCC1)CC2  Gamma-aminobutyric acid receptor subunit alpha-3 (Homo sapiens) (UniProt P34903)     115
3  Oc1nc2c(c3nc(-c4ccccc4F)cn13)CN(Cc1cccs1)CC2  Gamma-aminobutyric acid receptor subunit alpha-3 (Homo sapiens) (UniProt P34903)      96

Input: Read the entry Oc1nc2c(c3nc(-c4ccccc4F)cn13)CN(Cc1ccccc1)CC2 and write its reported Activity.
Output: 120

Input: Read the entry O=C(OCc1ccccc1)N1CCc2nc(O)n3cc(-c4ccccc4F)nc3c2C1 and write its reported Activity.
Output: 0

Input: Read the entry Oc1nc2c(c3nc(-c4ccccc4F)cn13)CN(Cc1ccncc1)CC2 and write its reported Activity.
Output: 58
